# study.target: Aldo-keto reductase family 1 member B1 (Rattus norvegicus)
# test.summary: Inhibition of crude aldose reductase of rat lens
recorded.endpoint: pIC50
Give bare numbers, as −log10 of the molar value.

Some solved entries appear below for comparison.
> print(dat)
                                   compound  numeric.result
1        O=C(O)CN1C(=O)c2cccc3cccc(c23)C1=O            5.82
2             Cc1cc(=O)n(CCC(=O)O)c2ccccc12            3.96
3  Cc1cc(=O)n(C(C)C(=O)O)c2ccccc12 (stereo not given)            3.33
4  COc1ccc2c(ccc(=O)n2C(C)C(=O)O)c1 (stereo not given)            3.23

Please turn your attention to the following entry.
Notebook: pull reported pIC50 for Aldo-keto reductase family 1 member B1 (Rattus norvegicus), entry "Cc1cc(=O)n(CC(=O)O)c2ccccc12" 5.22

Each recorded value in this set is attributed to ChEMBL document CHEMBL1123244.
